- assay-system: guinea pig ileal longitudinal smooth muscle
- assay-name: Calcium channel antagonist testing: inhibition of carbachol-induced, muscarinic receptor-mediated Ca2+-dependent contraction of smooth muscle
- Format: cell-based
- condition-info: exponent (x 10⁻⁹); carbachol 5x10⁻⁷M, tonic component, triplicate; read-out: calcium channel antagonist act., inhib. act. on contractile Response to CD ID₅₀
outcome-measure: IC50 (nM)
Give the number; nM is assumed, so skip it.

Item under review: COC(=O)C1=C(C)NC(C)=C(C(=O)OCCCCCCCc2cc(C)no2)C1c1cccc(C(F)(F)F)c1 (stereo not shown) . Reported IC50?
5.13
